# assayedSystem: hFASN enzyme (full length) (Homo sapiens, UniProt P49327)
# Construct: 10 μL hFASN enzyme (full length, 300 ng, purified in house); made in house
# Sequence (P49327 whole entry): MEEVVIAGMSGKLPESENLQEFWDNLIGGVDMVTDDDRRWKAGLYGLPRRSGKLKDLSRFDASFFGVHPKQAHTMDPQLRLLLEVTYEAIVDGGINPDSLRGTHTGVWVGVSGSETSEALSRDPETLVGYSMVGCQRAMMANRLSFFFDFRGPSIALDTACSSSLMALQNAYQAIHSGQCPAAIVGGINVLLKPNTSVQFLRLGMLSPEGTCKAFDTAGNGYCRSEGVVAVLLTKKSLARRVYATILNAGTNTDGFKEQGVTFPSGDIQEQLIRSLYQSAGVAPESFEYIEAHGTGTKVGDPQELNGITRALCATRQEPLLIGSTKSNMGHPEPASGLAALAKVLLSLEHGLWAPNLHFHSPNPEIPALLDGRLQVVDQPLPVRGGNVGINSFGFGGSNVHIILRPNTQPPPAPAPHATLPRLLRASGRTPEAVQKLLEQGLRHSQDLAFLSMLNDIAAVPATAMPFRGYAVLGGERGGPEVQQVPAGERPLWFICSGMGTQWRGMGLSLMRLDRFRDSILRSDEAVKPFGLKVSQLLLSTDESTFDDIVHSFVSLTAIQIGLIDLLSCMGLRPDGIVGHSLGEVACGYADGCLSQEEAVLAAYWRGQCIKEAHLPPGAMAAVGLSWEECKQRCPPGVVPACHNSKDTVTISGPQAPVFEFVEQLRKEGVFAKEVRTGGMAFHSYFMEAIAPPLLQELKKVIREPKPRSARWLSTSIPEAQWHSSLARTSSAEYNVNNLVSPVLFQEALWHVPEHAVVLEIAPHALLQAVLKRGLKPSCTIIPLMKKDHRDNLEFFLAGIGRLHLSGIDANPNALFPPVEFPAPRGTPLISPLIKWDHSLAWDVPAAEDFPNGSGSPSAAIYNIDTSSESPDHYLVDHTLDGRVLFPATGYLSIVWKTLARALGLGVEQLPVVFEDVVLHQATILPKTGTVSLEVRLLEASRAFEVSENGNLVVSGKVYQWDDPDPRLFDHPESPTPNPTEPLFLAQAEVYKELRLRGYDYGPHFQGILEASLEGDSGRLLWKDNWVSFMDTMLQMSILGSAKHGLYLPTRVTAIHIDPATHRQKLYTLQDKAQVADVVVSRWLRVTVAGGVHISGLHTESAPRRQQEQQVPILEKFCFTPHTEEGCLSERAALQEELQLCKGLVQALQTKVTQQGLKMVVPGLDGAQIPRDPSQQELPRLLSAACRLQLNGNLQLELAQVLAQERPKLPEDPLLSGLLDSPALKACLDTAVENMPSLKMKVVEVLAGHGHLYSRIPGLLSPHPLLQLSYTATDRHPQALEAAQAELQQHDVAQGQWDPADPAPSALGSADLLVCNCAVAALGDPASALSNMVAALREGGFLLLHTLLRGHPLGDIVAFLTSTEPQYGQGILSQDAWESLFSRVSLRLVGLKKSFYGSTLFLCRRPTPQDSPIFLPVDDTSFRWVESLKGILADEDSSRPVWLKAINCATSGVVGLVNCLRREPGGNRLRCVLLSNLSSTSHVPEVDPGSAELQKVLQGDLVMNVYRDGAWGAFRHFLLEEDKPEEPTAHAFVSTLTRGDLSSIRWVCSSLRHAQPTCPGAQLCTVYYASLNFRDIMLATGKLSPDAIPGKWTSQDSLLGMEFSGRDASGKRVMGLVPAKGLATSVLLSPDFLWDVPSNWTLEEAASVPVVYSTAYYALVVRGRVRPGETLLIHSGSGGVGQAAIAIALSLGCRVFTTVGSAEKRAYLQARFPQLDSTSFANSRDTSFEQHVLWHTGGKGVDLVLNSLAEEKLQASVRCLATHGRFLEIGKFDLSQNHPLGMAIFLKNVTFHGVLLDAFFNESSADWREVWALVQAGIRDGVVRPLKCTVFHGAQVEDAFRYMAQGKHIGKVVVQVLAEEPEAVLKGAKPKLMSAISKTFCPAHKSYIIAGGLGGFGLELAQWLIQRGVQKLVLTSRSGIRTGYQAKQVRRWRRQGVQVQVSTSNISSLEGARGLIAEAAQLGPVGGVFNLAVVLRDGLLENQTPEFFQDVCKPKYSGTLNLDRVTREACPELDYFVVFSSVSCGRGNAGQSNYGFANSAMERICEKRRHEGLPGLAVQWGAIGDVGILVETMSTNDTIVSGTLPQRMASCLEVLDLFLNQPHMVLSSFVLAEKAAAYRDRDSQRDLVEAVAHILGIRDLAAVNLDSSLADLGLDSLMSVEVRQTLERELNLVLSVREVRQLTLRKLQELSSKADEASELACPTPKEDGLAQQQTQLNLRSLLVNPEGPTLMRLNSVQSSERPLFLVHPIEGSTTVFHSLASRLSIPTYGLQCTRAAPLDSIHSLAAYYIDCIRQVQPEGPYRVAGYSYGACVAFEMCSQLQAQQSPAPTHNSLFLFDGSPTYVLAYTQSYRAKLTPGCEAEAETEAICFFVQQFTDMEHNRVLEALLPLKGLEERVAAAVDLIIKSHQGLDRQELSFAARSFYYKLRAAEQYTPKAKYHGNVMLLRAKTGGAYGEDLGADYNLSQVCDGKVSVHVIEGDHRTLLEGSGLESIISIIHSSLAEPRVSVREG
# assayNotes: Fatty Acid Synthase (FASN) inhibition scintillation proximity assay
# Type: biochemical
# testContext: read-out: Human FASN % inhibition @ 10 μM, 10 μM test compound
readoutLabel: inhibition at 10 µM
# answer = value followed by unit

// query # query: inhibition at 10 µM of entry CS(=O)(=O)N1CC(CN2C(=O)C3(CCOCC3)N=C2c2ccc(-c3ccc4occc4c3)cc2)C1
// result 1%

// query Here is the next molecule: Cc1cc(-c2cccc(S(=O)(=O)C(C)C)c2)ccc1C1=NC2(CC2)C(=O)N1C[C@@H]1CCN(C(=O)C2CC2)C1
// result 59%

// query Here is the next molecule: CC(C)S(=O)(=O)c1cccc(-c2ccc(C3=NC4(CC4)C(=O)N3C[C@@H]3CCN(C(=O)C4CC4)C3)c(F)c2)c1
// result 70%

// query Here is the next molecule: COC(=O)N1CC(CN2C(=O)C3(CCOC3)N=C2c2ccc(-c3ccc4c(cnn4C)c3)cc2)C1 (stereo not shown)
// result -7%

// query Here is the next molecule: O=C(N1CCC(CN2C(=O)C3(CCOC3)N=C2c2ccc(-c3ccc4occc4c3)cc2)C1)C(F)(F)F (stereo not shown)
// result 43%

// query Here is the next molecule: Cn1cc(-c2ccc(-c3ccc(C4=NC5(CC5)C(=O)N4CC4CN(C(=O)C5(C)CC5)C4)c(F)c3)cc2)cn1
// result 100%

New cases:
// query # query: inhibition at 10 µM of entry O=C(C1CC1)N1CC(CN2C(=O)C3(CCNCC3)N=C2c2ccc(-c3ccc4occc4c3)cc2)C1
// result 74%

---

# assayedSystem: hFASN enzyme (full length) (Homo sapiens, UniProt P49327)
# Construct: 10 μL hFASN enzyme (full length, 300 ng, purified in house); made in house
# assayNotes: Fatty Acid Synthase (FASN) inhibition scintillation proximity assay
# Format: biochemical
# testContext: read-out: Human FASN % inhibition @ 10 μM, 10 μM test compound
# maps each entry to its inhibition at 10 µM
Write it as a number; the unit % goes unstated.

// query # query: inhibition at 10 µM of entry Cc1cc(-c2ccc3c(cnn3C)c2)ccc1C1=NC2(CC2)C(=O)N1CC1CN(C(=O)C2(C)COC2)C1
// result 94

// query Here is the next compound: Cc1sc2ccc(-c3ccc(C4=NC5(CCN(C(=O)C(C)C)CC5)C(=O)N4C[C@@H]4CCN(C(=O)C5CC5)C4)cc3)cc2c1C
// result 109

// query Here is the next compound: COC(=O)N1CCC2(CC1)N=C(c1ccc(-c3ccc4occc4c3)cc1)N(C[C@@H]1CCN(C(=O)C3CC3)C1)C2=O
// result 98.2

New cases:
// query # query: inhibition at 10 µM of entry Cc1sc2ccc(-c3ccc(C4=NC5(CC5)C(=O)N4C[C@@H]4CCN(C(=O)C5CC5)C4)cc3)cc2c1C
// result 106

// query Here is the next compound: Cn1cc(-c2ccc(-c3ccc(C4=NC5(CC5)C(=O)N4CC4CN(C(=O)C5CC5)C4)cc3)nc2)cn1
// result 95

---

# maps each entry to its IC50
# assayedSystem: hFASN enzyme (full length) (Homo sapiens)
# Construct: 10 μL hFASN enzyme (full length, 300 ng, purified in house); made in house
# assayNotes: Fatty Acid Synthase (FASN) inhibition scintillation proximity assay
# Format: biochemical
# testContext: read-out: Human FASN pIC50 (converted)

// below: answered compounds
// query # query: IC50 of entry O=C(C1CC1)N1CC(CN2C(=O)C3(CC3)N=C2c2ccc(-c3ccc4c(cnn4C4CC4)c3)cc2F)C1
// result 1660 nM

// query Here is the next compound: COCc1nn(C)c2ccc(-c3ccc(C4=NC5(CC5)C(=O)N4CC4CN(C(=O)C5CC5)C4)c(F)c3)cc12
// result 148 nM

// query Here is the next compound: O=C(C1CC1)N1CC(CN2C(=O)C3(CC3)N=C2c2ccc(-c3ccc4nncn4c3)cc2)C1
// result ~6310 nM

The record that follows has no IC50 shown yet.
// query # query: IC50 of entry O=C(C1CC1)N1CC[C@@H](CN2C(=O)C3(CC3)N=C2c2ccc(-c3ccc4cncnc4c3)cc2F)C1
// result 72.4 nM
